Measured quantity: melting point

Compound | Readout value
COc1cc2cc(C#N)sc2cc1OC | 125 °C
CC(C)(C)OC(=O)NCCN1CC2CNCC(C1)O2 | 91 to 93 °C
CN(C)/C=C/c1cc(OC2CCN(C(=O)OC(C)(C)C)CC2)ccc1C#N | 135 to 137 °C
COc1ccccc1Cc1nc2ccccc2c(=O)n1CCO | 154 to 155 °C
CCCCN1CCN(Cc2nc(-c3ccc4c(c3)Nc3ccccc3S4)cs2)CC1 | 188 to 190 °C

Turning now to a further record.
I am curious: what melting point value has been reported for O=c1ccc2c([nH]1)C(Nc1ccccc1)CCC2 (stereo not given) ? 225 °C
